B1: Osa-1-4 twister ribozyme (parent)
chain: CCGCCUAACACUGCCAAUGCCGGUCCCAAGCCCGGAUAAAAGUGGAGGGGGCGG

variants of: B1; assay: self-cleavage, relative activity (ratio to wild type); higher = more cleavage; co-transcriptional
measured parameter: self-cleavage

>>> data_value("G34U G51A")
0.1
>>> data_value("C32U G45A")
0.08
>>> data_value("C15A C52G")
0.32
>>> data_value("A17C G22C")
0.05
>>> data_value("A36C C11G")
0.08
>>> data_value("A16U C32G")
0.11
>>> data_value("G13U G34A")
0.02
>>> data_value("G13C G50A")
0.03
>>> data_value("A40C G48U")
0.03
>>> data_value("A38G G35A")
0.83
>>> data_value("C20G G35C")
0.28
>>> data_value("C32U G49U")
0.05
>>> data_value("C20G G51U")
0.06
>>> data_value("A36G U12A")
0.99
>>> data_value("G23U U43A")
0.04
>>> data_value("G47C U12A")
0.06
>>> data_value("A16U G48A")
0.08
>>> data_value("A17C C21A")
0.15
>>> data_value("G22U G23C")
0.04
>>> data_value("C31G U12C")
0.06
>>> data_value("C32G G35U")
0.08
>>> data_value("A29C G53U")
0.03
>>> data_value("C25A G51C")
0.05
>>> data_value("G30C U37A")
0.03
>>> data_value("A46U G54C")
0.08
>>> data_value("G47U U43A")
0.1
>>> data_value("C32U G13C")
0.01
>>> data_value("A29U G22A")
0.12
>>> data_value("C52G G35A")
0.84
>>> data_value("A8U C9G")
0.11
>>> data_value("A28C U24A")
0.14
>>> data_value("A17C C20A")
0.58
>>> data_value("A16G C15U")
0.45
>>> data_value("A39U G47A")
0.13
>>> data_value("A36U C25A")
0.12
>>> data_value("A29G A46U")
0.04
>>> data_value("A46C C25A")
0.03
>>> data_value("A8C G53C")
0.02
>>> data_value("G34U G51U")
0.06
>>> data_value("C31G U37A")
0.12
>>> data_value("A41G A46U")
0.08
>>> data_value("A7C G35U")
0.05
>>> data_value("G22C G23C")
0.02
>>> data_value("C15U G49C")
0.04
>>> data_value("C31U U37C")
0.94
>>> data_value("C27G G30C")
0.02
>>> data_value("A10C A38U")
0.08
>>> data_value("C32G")
0.18
>>> data_value("C15U G34C")
0.09
>>> data_value("A39U C52U")
1
>>> data_value("A10G G44C")
0.81
>>> data_value("C20U G23U")
0.13
>>> data_value("C33A G30C")
0.02
>>> data_value("A39U C26U")
0.54
>>> data_value("A40G G45C")
0.07
>>> data_value("A46C C15A")
0.03
>>> data_value("C26G G53C")
0.03
>>> data_value("A40G G19A")
0.18
>>> data_value("C20A G19C")
0.31
>>> data_value("A29U C20U")
0.21
>>> data_value("C15G G47A")
0.08
>>> data_value("G22A G45A")
0.15
>>> data_value("A46U C52G")
0.12
>>> data_value("C26A G19U")
0.03
>>> data_value("C52U G47U")
0.4
>>> data_value("A36C G54A")
0.27
>>> data_value("A39U G22A")
0.93
>>> data_value("A8C C21U")
0.06
>>> data_value("C9U G48U")
0.03
>>> data_value("A40U C26U")
0.14
>>> data_value("C26G U12A")
0.07
>>> data_value("G45U G48U")
0.04
>>> data_value("C25G G51C")
0.03
>>> data_value("A36C A46U")
0.05
>>> data_value("C21A G53C")
0.06
>>> data_value("A40G G34A")
0.44
>>> data_value("A38U C26G")
0.09
>>> data_value("C20U G34C")
0.31
>>> data_value("A40U G44U")
0.26
>>> data_value("A40U")
0.85
>>> data_value("G42U G44U")
0.15
>>> data_value("G44A G51C")
0.08
>>> data_value("G45U U43A")
0.06
>>> data_value("C33U G47A")
0.08
>>> data_value("G42C U43A")
0.1
>>> data_value("A28G C20G")
0.08
>>> data_value("C9U G53A")
0.63
>>> data_value("C26G G53U")
0.06
>>> data_value("A38C U37G")
0.99
>>> data_value("C15G G23C")
0.07
>>> data_value("C15A C27U")
0.07
